Data origin: patent US20240101708A1

Target: T1, recombinant human RNF43 extracellular domain (human, UniProt Q68DV7 24-197)
T1 construct: extracellular domain; also called huRNF43; human RNF43 ECD
T1 sequence (looked up): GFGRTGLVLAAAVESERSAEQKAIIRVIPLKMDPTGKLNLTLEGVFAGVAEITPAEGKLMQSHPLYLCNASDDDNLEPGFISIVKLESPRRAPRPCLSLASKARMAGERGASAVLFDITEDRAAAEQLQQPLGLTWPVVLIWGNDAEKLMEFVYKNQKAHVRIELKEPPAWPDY
Assay: SPR Biacore 8K; antibody captured on Protein A; RNF43 ECD analyte; 25 C
Provide the reported Kd of each item.
Give bare numbers, in nM.

The following binders have reported results that may help.
RNF43-116 (antibody, V domains shown, Rat clone; VH/VL only) VH: QVQLQQSGAELAKPGSSVKISCKASGYTFTSYYISWIKQTTGQDLEYIGYVNTRSGGTNYNEKFKVKATLTVDNSSSTAFMQLSSLTPDDSAVYYCARGRTDWGQGTLVTVSS VL: DIQMTQSPSLLSASVGDRVTVNCKASQNIYKNLEWYQQKHGEAPKLLIYYTNNLQTGISSRFSGSGSGTDYTLTISSLQPEDVATYYCFQYNSGYTFGAGTKLELK: 1.42
RNF43-145 (antibody, V domains shown, Rat clone; VH/VL only) VH: EVQLKESGPGLVQPSQTLSLTCTVSGFSLTDYSVYWVRQPPGKGLEWMGVMWSGGTTAYNSALKSRLSISRDTSKSQVFLKMNSLQTEDTAIYYCTRGGKYDGTYYYGWYFDFWGPGTMVTVSS VL: DVVLTQSPATLSVTPGERISLSCRASESVDTYLYWYQQKPNESPRLLIKYASQSISGIPSRFSGSGSGTDFTLSINGVELEDLSIYYCQQGNSLPLTFGSGTKLEIK: 0.504

Pending binder:
## Task Quickly give me recorded Kd for RNF43-23 (antibody, V domains shown, Rabbit clone; VH/VL only) VH: QEQVVESGGGLVQPEGSLTLTCKGSGFDFSGNVLCWVRQAPGKGLEWIGCIATGIGSTAYASWAKGRFTITRGTSLNTVDLKMTSLTAADTATYFCARYVSGSEYYNFWGPGTLVTVSS VL: AYDMTQTPASVEVAVGGTVTIKCQASQSISSFLAWYQQKPGQPPMLLIYKASTLASGVPSRFKGSGSGTQFTLTISGVECADAATYYCQQGYSWNGVDNTFGGGTEVVVK
## Result 85
